- tgt: Bcl-xL, Q07817
- Sequence (Q07817 1-209): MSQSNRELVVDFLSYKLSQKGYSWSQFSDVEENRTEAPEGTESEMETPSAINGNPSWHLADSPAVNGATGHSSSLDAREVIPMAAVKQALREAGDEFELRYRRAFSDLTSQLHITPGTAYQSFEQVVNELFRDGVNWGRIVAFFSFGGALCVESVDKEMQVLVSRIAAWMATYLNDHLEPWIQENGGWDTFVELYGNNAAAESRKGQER
- assay notes: peptide SPOT array, c-Myc-tagged receptor at 1 uM or 100 nM, anti-c-Myc-Cy3
The entries below are paired with their reported SPOT signal as a fraction of Bim BH3's signal on the same receptor and array.
endpoint: SPOT signal as a fraction of Bim BH3's signal on the same receptor and array

>>> df
                                 binder  value_measured
0    LSSISELSARLHLWAFKMDYETTEKE [FHOD3]            0.03
1    KKCQDMIMTEDTNAGDDVVVFYNDKA [ITPR3]            0.02
2   ADAIRPRCVEDRHLCDDFINGNKKKW [MCF2L2]            0.15
3   EVNMSLSGRYLEELSQRYRKQMEEMQ [C1orf9]            0.03
4  ITVVGDVGGRDAIIVDDIIDDVESFV [PRPSAP1]            0.02
5    IVGGCVVGIAMARFLDFIRGMLKLIL [DIRC2]            0.29
6   WLKGDILGEKLVNLADCLCNEDLESR [RNF160]            0.07
7    ERAISCMGQIICNLLDNLGSDLPNTL [CAND1]            0.02
8    AGYELLIQKFDSLYGDQIDMHRKFVV [ISOC1]            0.08
9   YGRLRPRARSLSKALTAINWLTKKFL [MYO15A]            0.94
